Origin of the recorded values: patent US20070202045A1

target: T1, rat albumin (rat, UniProt P02770 25-608); test: SA08b competition ELISA
T1 construct: bought (Sigma); also called rat SA; RSA
T1 sequence (P02770 25-608 limits assumed): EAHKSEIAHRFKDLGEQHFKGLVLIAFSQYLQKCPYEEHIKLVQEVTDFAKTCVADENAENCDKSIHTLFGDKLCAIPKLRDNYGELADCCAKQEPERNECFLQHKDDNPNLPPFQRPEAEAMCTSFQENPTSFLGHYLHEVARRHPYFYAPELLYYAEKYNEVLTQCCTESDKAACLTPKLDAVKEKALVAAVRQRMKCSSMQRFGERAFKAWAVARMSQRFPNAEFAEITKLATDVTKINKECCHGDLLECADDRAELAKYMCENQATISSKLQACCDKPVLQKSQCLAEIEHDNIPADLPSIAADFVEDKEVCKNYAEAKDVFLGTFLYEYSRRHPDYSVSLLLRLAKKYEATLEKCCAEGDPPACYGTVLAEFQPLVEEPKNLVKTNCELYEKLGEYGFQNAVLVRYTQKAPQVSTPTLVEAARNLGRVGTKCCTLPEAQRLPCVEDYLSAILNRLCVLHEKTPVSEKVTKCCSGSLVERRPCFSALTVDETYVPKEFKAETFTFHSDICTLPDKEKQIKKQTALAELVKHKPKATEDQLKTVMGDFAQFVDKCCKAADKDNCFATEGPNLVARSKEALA
Bridges are numbered along the chain shown (N, C = ends). Where no end group is shown, it is not given here.
assayMetric: pIC50
By convention, pIC50 is the negative base-10 log of a molar concentration.

Observe how each entry below is paired with its result.
| binder | pIC50 |
| --- | --- |
| DICLPRWGCLW-NH2 (disulfide 3-9 (inferred), synthetic; disulfide oxidised) [SA04] | 6.10 |
| Ac-MEDICLPRWGCLWEDD-NH2 (disulfide 5-11 (inferred), synthetic; disulfide oxidised) [SA11] | 6.63 |

Field: next binder
Query: Input MEDICLPRWGCLWED-NH2 (disulfide 5-11 (inferred), synthetic; disulfide oxidised) [SA05] , output reported pIC50.
Result: 6.79
